# target_entity: Cytochrome P450 3A4 (Homo sapiens)
# Sequence (P08684 whole entry): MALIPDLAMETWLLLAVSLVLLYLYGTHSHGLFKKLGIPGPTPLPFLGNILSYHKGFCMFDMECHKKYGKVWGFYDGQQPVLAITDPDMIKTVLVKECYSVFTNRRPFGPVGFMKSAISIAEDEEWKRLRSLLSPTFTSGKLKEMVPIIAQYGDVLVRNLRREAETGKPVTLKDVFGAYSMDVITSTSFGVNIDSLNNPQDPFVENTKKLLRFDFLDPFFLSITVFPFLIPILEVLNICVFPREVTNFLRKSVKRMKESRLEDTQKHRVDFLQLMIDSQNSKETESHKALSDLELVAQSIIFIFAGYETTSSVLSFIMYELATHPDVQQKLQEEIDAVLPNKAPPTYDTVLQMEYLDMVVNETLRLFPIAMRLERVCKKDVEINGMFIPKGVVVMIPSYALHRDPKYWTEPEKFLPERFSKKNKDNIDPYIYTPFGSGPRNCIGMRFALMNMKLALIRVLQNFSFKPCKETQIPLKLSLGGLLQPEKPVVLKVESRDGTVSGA
# assay_summary: Inhibition of recombinant CYP3A4 by microtiter plate-based fluorimetric assay
measurement_kind: IC50 (µM)
Kindly provide the numeric value in µM only, without the unit symbol.

Known IC50 results, listed for orientation:
Cc1c(-c2cccc(OCCCCCC(=O)O)c2F)c(=O)n(C[C@H](N)c2ccccc2)c(=O)n1Cc1c(F)cccc1C(F)(F)F :: 8.2
Cc1c(-c2cccc(OCCCCC(=O)O)c2F)c(=O)n(C[C@@H](c2ccccc2)N(C)C)c(=O)n1Cc1c(F)cccc1C(F)(F)F :: 42

Could you now look at the following compound, please?
Ask | Read off the recorded IC50 for "CN[C@@H](Cn1c(=O)c(-c2cccc(OCCC(C)(C)CC(=O)O)c2F)c(C)n(Cc2c(F)cccc2C(F)(F)F)c1=O)c1ccccc1"
Reply | 22
